Recorded % inhibition in P3X63 cytotoxicity assay, extract 1/150 for the following binders
assay-target: PcrV of P. aeruginosa strain PA103 (on TTSS-induced bacteria) (Pseudomonas aeruginosa strain PA103)
assay-comment: cell-based or functional assay
API: value field is a number in %; no unit string.

Inquiry: Note down % inhibition in P3X63 cytotoxicity assay, extract 1/150 recorded for 3E10-40GS-2B10 (VHH) EVQLVESGGGLVQAGGSLRLSCTASGHTFSSYTMGWFRQAPGKEREFVAAMTRSGFNTHYSDSVKGRFTISRDNTSRDNTKITMALQMNSLKPEDTAVYYCTTGRGLTSYVANFWGQGTQVTVSSGGGGSGGGGSGGGGSGGGGSGGGGSGGGGSGGGGSGGGGSEVQLVESGGGLVQPGGSLRLSCAASGSIFSINNMGWYRQAPGKQRELVTVVTSNLITTYADSVKGRFTISRDNAKNTVYLQMNSLKPEDTAVYYCNAWARSVGSVPYSQFWGQGTLVTVSS
Reply text: 52
